# Target Entity: T1, recombinant extracellular domain protein of human DLL3 (h.DLL3-ECD-His) (human, UniProt Q9NYJ7 27-492)
# T1 construct: extracellular domain; Commercial protein; also called human DLL3 antigen; not shown: His tag
# T1 sequence (looked up): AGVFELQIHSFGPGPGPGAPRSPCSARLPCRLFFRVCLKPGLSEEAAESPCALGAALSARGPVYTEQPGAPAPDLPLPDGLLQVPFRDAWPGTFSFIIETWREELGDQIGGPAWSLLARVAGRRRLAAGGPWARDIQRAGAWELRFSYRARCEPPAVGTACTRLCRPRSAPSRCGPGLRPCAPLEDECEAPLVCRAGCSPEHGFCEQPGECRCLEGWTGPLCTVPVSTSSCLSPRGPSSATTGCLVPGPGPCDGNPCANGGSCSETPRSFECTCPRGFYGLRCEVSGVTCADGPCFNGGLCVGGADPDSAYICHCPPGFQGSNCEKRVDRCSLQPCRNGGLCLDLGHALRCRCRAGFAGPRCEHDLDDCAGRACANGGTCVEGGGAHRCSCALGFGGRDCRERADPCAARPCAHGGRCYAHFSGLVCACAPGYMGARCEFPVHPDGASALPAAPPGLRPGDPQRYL
# Assay Text: BLI (ForteBio), antibody on ProA sensor, hDLL3-ECD-His in solution
Measurement Name: Kd

Exam item: Consider the binder 59B10D3-Hz antibody (antibody, human IgG1, kappa, V domains shown, Humanized; also called 59B10D3-hz1) VH: EVQLVESGGGLVQPGGSLRLSCAASGFTFSDAWMDWVRQAPGKGLEWVAEIRNKANNHATYYVDSVKGRFTISRDDAKNSVYLQMNSLRAEDTAVYYCTRNNYGSTWTYYAMDYWGQGTLVTVSS VL: DIQMTQSPSSLSASVGDRVTITCRASQDISNYLNWYQQKPGKAVKLLIYYTSRLHSGVPSRFSGSGSGTDYTLTISSLQPEDFATYYCQQGYTLPLTFGQGTKVEIKR and give its measured Kd.
Marked response: 14 nM

Source listed as patent US20260166168A1.
